# targetOfAssay: Recombinant (1-346) HPK1 (h) (Homo sapiens)
# Construct: Recombinant (1-346) HPK1 (h) is incubated with 8 mM MOPS pH 7.0
# assayMethodText: HPK1 Human STE Kinase Enzymatic Radiometric Assay
# Assay type: biochemical
# reportedConditions: read-out: HPK1 IC50 nM Range*
measure: IC50

Request: Respond only with IC50 recorded for `COc1cc(OC2CCNCC2)ccc1-c1cc(-c2ccc3c(c2)CCNC3=O)c(N)nc1F`
Result: 11 to 100 nM

Request: Please report the measured IC50 for CC(C)[C@H]1CN(c2ccc(-c3cc(-c4cc5c(cn4)C(=O)NCC5)c(N)nc3F)cc2)CCO1 [I-77, 2,2,2-trifluoroacetate]
Result: 0.1 to 10 nM

Request: Please give the documented IC50 of `Nc1nc(F)c(-c2ccc(N3CCN(CCC(F)F)CC3)cc2)cc1-c1cc2c(cc1F)C(=O)NCC2`
Result: 0.1 to 10 nM

Request: Fill in IC50 for record CC(C)N1CCOCC1c1ccc(-c2cc(-c3ccc4c(c3)CCNC4=O)c(N)nc2F)cc1 (stereo not shown)
Result: 0.1 to 10 nM

Request: Please list IC50 recorded for the molecule `CN(C)Cc1cc(-c2cc(-c3cc4c(cc3F)C(=O)NCC4)c(N)nc2F)ccc1C1CCOCC1`
Result: 0.1 to 10 nM

Request: // Input: `CC(C)N1CCN(c2ccc(-c3cc(-c4ccc5c(c4)CCNC5=O)c(N)nc3Cl)cc2)CC1` . Output its IC50 only.
Result: 11 to 100 nM

Request: Give the measured IC50 for `CC(C)(O)CN1C[C@H]2C[C@@]2(c2ccc(-c3cc(-c4ccc5c(c4)CCNC5=O)c(N)nc3F)cc2)C1`
Result: 0.1 to 10 nM

Request: Please list IC50 recorded for the molecule `CN(C)Cc1cc(-c2cc(-c3cc4c(cc3F)C(=O)NCC4)c(N)nc2F)ccc1N1CCN(C2CCCC2)CC1`
Result: 0.1 to 10 nM

Request: Report measured IC50; entry is `CC(C)S(=O)(=O)c1ccc(-c2cc(-c3ccc4c(c3)CCNC4=O)c(N)nc2F)cc1`
Result: 0.1 to 10 nM

Request: Return the recorded IC50 value; entry: `CC(C)N1CCN(c2ccc(-c3cc(-c4ccc5c(=O)[nH]cnc5c4)c(N)nc3F)cc2)CC1`
Result: 0.1 to 10 nM

Request: Look up and report measured IC50 for this entry: `CC(C)N1CCN(c2ccc(-c3cc(-c4ccc5c(=O)[nH]c(Cl)nc5c4)c(N)nc3F)cc2)CC1`
Result: 101 to 1000 nM

Request: Let me know recorded IC50 for `CC(=O)N1CCC(Oc2ccc(-c3cc(-c4ccc5c(c4)CCNC5=O)c(N)nc3F)cc2)CC1` , thanks.
Result: 0.1 to 10 nM

Request: Answer with the recorded IC50 for the molecule listed here: `Nc1nc(F)c(-c2ccc3c(c2)C(=O)CC2(CCN(CC(F)(F)F)CC2)O3)cc1-c1ccc2c(c1)CCNC2=O`
Result: 0.1 to 10 nM

Request: Recall and state the measured IC50 for `CCN(C)Cc1c(N2CCOCC2)ccc(-c2cc(-c3ccc4c(c3)CCNC4=O)c(N)nc2F)c1F` .
Result: 11 to 100 nM

Request: Annotate the molecule `CC(C)N1CCN(c2ccc(-c3cc(-c4cc(F)c5c(=O)[nH]cc(Cl)c5c4)c(N)nc3F)cc2)CC1` with its measured IC50.
Result: 0.1 to 10 nM

Request: Write down IC50 measured for item `COC1CCN(Cc2cc(-c3cc(-c4cc5c(cc4F)C(=O)NCC5)c(N)nc3F)ccc2OCCCC(F)F)CC1`
Result: 11 to 100 nM

* * *

# targetOfAssay: Recombinant (1-346) HPK1 (h) (Homo sapiens, UniProt Q92918)
# Construct: Recombinant (1-346) HPK1 (h) is incubated with 8 mM MOPS pH 7.0
# assayMethodText: HPK1 Human STE Kinase Enzymatic Radiometric Assay
# Assay type: biochemical
# reportedConditions: read-out: HPK1 IC50 nM Range*
measure: IC50

Request: Write down IC50 measured for item Cc1[nH]c(=O)c2c(F)cc(-c3cc(-c4ccc(N5CCN(C(C)C)CC5)cc4)c(F)nc3N)cc2c1F [I-481]
Result: 0.1 to 10 nM

Request: Kindly indicate its recorded IC50. Item: CN1CCC[C@H]1c1cccc(-c2cc(-c3ccc4c(c3)CCNC4=O)c(N)nc2F)c1 [I-443]
Result: 101 to 1000 nM

Request: Entry CC(C)(C)OC(=O)N1CCN(c2ccc(-c3cc(-c4ccc5c(c4)CCNC5=O)c(N)nc3F)cc2C(F)(F)F)CC1 [I-177] needs its IC50 filled in; supply it.
Result: 101 to 1000 nM

Request: Using known records, supply IC50 for CO[C@@H]1CCN(c2ccc(-c3cc(-c4ccc5c(c4)CCNC5=O)c(N)nc3F)cc2)C1 [I-114]
Result: 11 to 100 nM

Request: Give recorded IC50. Cc1cc(-c2cc(-c3ccc4c(c3)CCNC4=O)c(N)nc2F)cc2c1CCN(CCCC(F)F)C2 [I-446]
Result: 0.1 to 10 nM

Request: Supply measured IC50 of Nc1nc(F)c(-c2ccc(N3CCN(CC(F)(F)F)CC3)c(C(F)(F)F)c2)cc1-c1ccc2c(c1)CCNC2=O [I-202] in your reply.
Result: 11 to 100 nM

Request: Tell us which IC50 value is on record for CN(C)Cc1cc(-c2cc(-c3ccc4c(c3)CCNC4=O)c(N)nc2F)ccc1F [I-617]
Result: 11 to 100 nM

Request: Determine from records and report IC50 for Nc1nc(F)c(-c2ccc(OC3CCN(CC4CC4)CC3)cc2)cc1-c1cc2c(cc1F)C(=O)NCC2 [I-324]
Result: 0.1 to 10 nM

* * *

# targetOfAssay: Recombinant (1-346) HPK1 (h) (Homo sapiens, UniProt Q92918)
# Construct: Recombinant (1-346) HPK1 (h) is incubated with 8 mM MOPS pH 7.0
# Sequence (Q92918 1-346): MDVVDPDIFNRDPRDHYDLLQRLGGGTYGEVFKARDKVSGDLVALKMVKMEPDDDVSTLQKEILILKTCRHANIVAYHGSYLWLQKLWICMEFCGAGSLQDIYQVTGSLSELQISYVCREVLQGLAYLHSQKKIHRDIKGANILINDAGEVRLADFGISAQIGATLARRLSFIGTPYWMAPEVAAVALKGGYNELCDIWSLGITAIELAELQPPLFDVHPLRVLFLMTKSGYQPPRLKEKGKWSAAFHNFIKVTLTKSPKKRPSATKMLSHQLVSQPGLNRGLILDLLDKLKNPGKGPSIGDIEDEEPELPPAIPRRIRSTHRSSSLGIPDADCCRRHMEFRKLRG
# assayMethodText: HPK1 Human STE Kinase Enzymatic Radiometric Assay
# Type: biochemical
# reportedConditions: read-out: HPK1 IC50 nM Range*
Field: IC50. Provide a value for each of the molecules that follow.

Request: Please supply the value of reported IC50 for the item Nc1nc(F)c(-c2ccc(OC3CCN(C(=O)CC4CC4)CC3)cc2)cc1-c1ccc2c(c1)CCNC2=O [I-337]
Result: 11 to 100 nM

Request: Read the entry COCCN1CC=C(c2ccc(-c3cc(-c4ccc5c(c4)CCNC5=O)c(N)nc3F)cc2)C1 [I-124] and write its reported IC50.
Result: 0.1 to 10 nM

Request: Report IC50 for CC(C)S(=O)(=O)c1ccc(-c2cnc(N)c(-c3ccc4c(c3)CCNC4=O)c2F)cc1 [I-3]
Result: 11 to 100 nM

Request: Quote IC50 reported for CC(=O)N1CC(Oc2ccc(-c3cc(-c4cc5c(cc4F)C(=O)NCC5)c(N)nc3F)cc2)C1 [I-341] please.
Result: 11 to 100 nM

Request: Give IC50 for Cc1nc2cc(-c3cc(-c4ccc(N5CCN(C(C)C)CC5)cc4)c(F)nc3N)cc(F)c2c(=O)[nH]1 [I-414]
Result: 0.1 to 10 nM

Request: In one line, give reported IC50 of the entry Nc1nc(F)c(-c2ccc(N3CCNCC3)cc2)cc1-c1ccc2c(c1)CCNC2=O [I-17] .
Result: 0.1 to 10 nM

Request: Given CN1CCC[C@H]1c1cc(-c2cc(-c3ccc4c(c3)CCNC4=O)c(N)nc2F)ccc1C1CCOCC1 [I-642] , respond with its IC50.
Result: 11 to 100 nM

Request: Quote IC50 reported for Nc1nc(F)c(-c2ccc(S(=O)(=O)C(F)(F)F)cc2)cc1-c1ccc2c(c1)CCNC2=O [I-87] please.
Result: 11 to 100 nM

Request: Supply recorded IC50 for Nc1nc(F)c(-c2ccc(C3CCOCC3)c([C@@H]3CCCN3)c2)cc1-c1ccc2c(c1)CCNC2=O [I-367] here.
Result: 0.1 to 10 nM

Request: Answer with the recorded IC50 for the molecule listed here: COCCN1CCC(Oc2ccc(-c3cc(-c4ccc5c(c4)CCNC5=O)c(N)nc3F)cc2F)CC1 [I-269]
Result: 0.1 to 10 nM

Request: Check the records and state IC50 for CCS(=N)(=O)c1ccc(-c2cc(-c3ccc4c(c3)CCNC4=O)c(N)nc2F)cc1 (centres unmarked) [I-85]
Result: 11 to 100 nM

Request: Please supply the value of reported IC50 for the item Nc1nc(F)c(-c2ccc3c(c2)CCNC3)cc1-c1cc2c(cc1F)C(=O)NCC2 [I-287, 2,2,2-trifluoroacetate]
Result: 0.1 to 10 nM

Request: Provide IC50 value for the following molecule: CC(C)N1CCN(c2ccc(-c3cc(-c4ccc5c(c4)OCCNC5=O)c(N)nc3F)cc2)CC1 [I-358]
Result: 0.1 to 10 nM

Request: // Input: COc1cc(OC2CCN(C(C)C)CC2)ccc1-c1cc(-c2ccc3c(c2)CCNC3=O)c(N)nc1F [I-272] . Output its IC50 only.
Result: 0.1 to 10 nM

Request: Give me measured IC50, please, for this molecule: CCN1CC=C(c2ccc(-c3cc(-c4ccc5c(c4)CCNC5=O)c(N)nc3F)cc2)CC1 [I-76]
Result: 0.1 to 10 nM

Request: Output IC50 of CN(CC1CC1)[C@@H]1CCN(c2ccc(-c3cc(-c4ccc5c(c4)CCNC5=O)c(N)nc3F)cc2)C1 [I-161]
Result: 0.1 to 10 nM

Request: Name the recorded IC50 of the molecule listed here: CC(C)[C@H]1CN(c2ccc(-c3cc(-c4ccc5c(c4)CCNC5=O)c(N)nc3F)cc2)CCN1C [I-50]
Result: 0.1 to 10 nM

Request: Recall and state the measured IC50 for Nc1nc(F)c(-c2ccc(C3=CCN(CCO)CC3)cc2)cc1-c1ccc2c(c1)CCNC2=O [I-138] .
Result: 0.1 to 10 nM

Request: Note down IC50 recorded for Nc1nc(F)c(-c2ccc(N3CCN(CC4CC4)CC3)cc2)cc1-c1cc2c(cc1F)C(=O)NCC2 [I-213]
Result: 0.1 to 10 nM

Request: Name the recorded IC50 of the item CC(C)N1CCN(c2ccc(-c3cc(-c4ccc5c(=O)[nH]c(C6CC6)nc5c4)c(N)nc3F)cc2)CC1 [I-412] in your answer.
Result: 101 to 1000 nM

Request: Return value of IC50 for input Nc1nc(F)c(-c2ccc(N3CCOCC3)c(CN3CCOCC3)c2)cc1-c1cc2c(cc1F)C(=O)NCC2 [I-497] , no commentary.
Result: 11 to 100 nM

Request: Look up IC50 of CN1C[C@H]2C[C@@]2(c2ccc(-c3cc(-c4cc(F)c5c(c4)CCNC5=O)c(N)nc3F)cc2)C1 [I-352] and report it.
Result: 0.1 to 10 nM

Request: Could you please provide reported IC50 for COCCN(C)Cc1cc(-c2cc(-c3cc4c(cc3F)C(=O)NCC4)c(N)nc2F)ccc1C1CCOCC1 [I-574] ? Thanks!
Result: 0.1 to 10 nM

Request: Give reported IC50 value for CC(C)N1CCC2(CCc3cc(-c4cc(-c5ccc6c(c5)CCNC6=O)c(N)nc4F)ccc3O2)CC1 [I-223]
Result: 0.1 to 10 nM

Request: Retrieve IC50 measured for Nc1nc(F)c(-c2ccc(C3CCN(CC(F)F)CC3)cc2)cc1-c1ccc2c(c1)CCNC2=O [I-43] and print it.
Result: 0.1 to 10 nM

Request: Complete the entry with IC50 for CC(=O)N1CCC(Oc2ccc(-c3cc(-c4cc5c(cc4F)C(=O)NCC5)c(N)nc3F)cc2)CC1 [I-327]
Result: 0.1 to 10 nM

Request: Specify reported IC50 for the molecule shown: CN(C)Cc1cc(-c2cc(-c3cc4c(F)c[nH]c(=O)c4cc3F)c(N)nc2F)ccc1C1CCOCC1 [I-562]
Result: 0.1 to 10 nM

Request: Note down IC50 recorded for C[C@@H]1CN(c2ccc(-c3cc(-c4ccc5c(c4)CCNC5=O)c(N)nc3F)cc2)C[C@H](C)N1C(=O)OC(C)(C)C [I-284]
Result: 11 to 100 nM

Request: For the molecule Nc1nc(F)c(-c2ccc(N3CCN4CCOC[C@@H]4C3)cc2)cc1-c1ccc2c(c1)CCNC2=O [I-39] , give its reported IC50.
Result: 0.1 to 10 nM

Request: Assign IC50 to the following record: CC(C)N1CCc2cc(-c3cc(-c4cc5c(cc4F)C(=O)NCC5)c(N)nc3F)ccc2C1 [I-299]
Result: 0.1 to 10 nM

Request: Provide measured IC50 value, entry: COCCN1CCC(Oc2ccc(-c3cc(-c4ccc5c(c4)CCNC5=O)c(N)nc3F)cc2)CC1 [I-189]
Result: 0.1 to 10 nM

Request: Note down IC50 recorded for Nc1nc(F)c(-c2ccc(O[C@H]3CCCNC3)cc2)cc1-c1ccc2c(c1)CCNC2=O [I-94]
Result: 0.1 to 10 nM
